- System: MET (human) (Homo sapiens, UniProt P08581)
- Sequence (P08581 25-1390): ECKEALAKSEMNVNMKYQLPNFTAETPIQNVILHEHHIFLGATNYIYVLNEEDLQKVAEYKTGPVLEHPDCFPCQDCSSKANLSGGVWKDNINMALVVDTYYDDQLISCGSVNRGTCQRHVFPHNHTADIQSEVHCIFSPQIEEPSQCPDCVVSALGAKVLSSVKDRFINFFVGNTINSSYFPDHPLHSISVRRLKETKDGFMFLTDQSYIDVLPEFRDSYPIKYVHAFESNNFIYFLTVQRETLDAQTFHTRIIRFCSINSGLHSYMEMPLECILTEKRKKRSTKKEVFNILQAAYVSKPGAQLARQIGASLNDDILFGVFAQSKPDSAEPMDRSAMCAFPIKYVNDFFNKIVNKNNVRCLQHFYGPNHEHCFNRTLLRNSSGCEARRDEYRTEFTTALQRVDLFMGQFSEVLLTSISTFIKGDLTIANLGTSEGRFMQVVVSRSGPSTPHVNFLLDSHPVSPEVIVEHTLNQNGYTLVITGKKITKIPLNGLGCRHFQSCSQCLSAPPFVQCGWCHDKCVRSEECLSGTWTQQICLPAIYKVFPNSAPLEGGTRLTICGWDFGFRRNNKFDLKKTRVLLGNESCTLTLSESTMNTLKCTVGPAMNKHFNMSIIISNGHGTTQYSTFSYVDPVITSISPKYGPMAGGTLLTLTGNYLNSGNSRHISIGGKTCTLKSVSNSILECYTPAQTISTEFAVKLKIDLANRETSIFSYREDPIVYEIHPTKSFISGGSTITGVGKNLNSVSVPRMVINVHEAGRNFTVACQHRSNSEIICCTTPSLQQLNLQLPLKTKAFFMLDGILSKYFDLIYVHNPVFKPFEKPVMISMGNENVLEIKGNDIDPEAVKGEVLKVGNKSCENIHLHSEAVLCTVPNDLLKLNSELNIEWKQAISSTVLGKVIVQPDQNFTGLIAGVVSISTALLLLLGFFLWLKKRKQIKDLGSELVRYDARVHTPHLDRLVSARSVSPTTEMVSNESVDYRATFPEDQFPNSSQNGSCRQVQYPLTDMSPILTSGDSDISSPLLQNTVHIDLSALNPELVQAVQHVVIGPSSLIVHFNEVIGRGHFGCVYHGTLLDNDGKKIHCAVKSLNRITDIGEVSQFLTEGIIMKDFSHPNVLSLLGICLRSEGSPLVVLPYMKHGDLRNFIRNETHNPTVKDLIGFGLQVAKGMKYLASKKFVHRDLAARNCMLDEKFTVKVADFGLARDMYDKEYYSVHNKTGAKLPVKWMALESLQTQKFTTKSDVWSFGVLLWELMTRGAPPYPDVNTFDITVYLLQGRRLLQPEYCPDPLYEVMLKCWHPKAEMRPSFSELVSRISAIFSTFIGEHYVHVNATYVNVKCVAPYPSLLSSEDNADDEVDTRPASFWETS
- Assay Summary: MET (human) AlphaScreen kinase assay, Km of ATP
- Format: biochemical
- Reported Conditions: AlphaScreen, Km of ATP; read-out: Met biochemical IC50
pIC50: −log10 of the molar value.
Result Type: pIC50

Molecule | Result Type | Result
C[C@@H](Oc1c(N)ncc2c(-c3csc(CN4CCCC4)c3)coc12)c1c(Cl)ccc(F)c1Cl [Example 308] | pIC50 | > 6.30
C[C@@H](Oc1c(N)ncc2c(-c3ccc(Cn4cccn4)cc3)coc12)c1c(Cl)ccc(F)c1Cl [Example 110] | pIC50 | 5.30 to 6.30
CNC(=O)c1ccc(-c2coc3c(O[C@H](C)c4c(Cl)ccc(F)c4Cl)c(N)ncc23)cc1 [Example 289] | pIC50 | 5.30 to 6.30
Nc1ncc2c(-c3cnn(C4CCNCC4)c3)coc2c1O[C@H]1CCC[C@H]1c1ccccc1 [Example 407] | pIC50 | > 6.30
CC(=O)c1ccc(-c2coc3c(O[C@H](C)c4c(Cl)ccc(F)c4Cl)c(N)ncc23)s1 [Example 114] | pIC50 | 5.30 to 6.30
C[C@@H](Oc1c(N)ncc2c(C3=CCN(/C(N)=N\C#N)CC3)coc12)c1c(Cl)ccc(F)c1Cl [Example 197] | pIC50 | 5.30 to 6.30
COc1cccc(C(C)Oc2c(N)ncc3c(-c4cnn(C5CCNCC5)c4)coc23)c1 (stereo not drawn) [Example 345] | pIC50 | 5.30 to 6.30
CC(=O)N1CCN(c2ccc(-c3coc4c(O[C@H](C)c5c(Cl)ccc(F)c5Cl)c(N)ncc34)cn2)CC1 [Example 281] | pIC50 | > 6.30
Cc1cccc(C)c1C(C)Oc1c(N)ncc2c(-c3cnn(C4CCNCC4)c3)coc12 (stereo not drawn) [Example 402] | pIC50 | 5.30 to 6.30
C[C@@H](Oc1c(N)ncc2c(C3=CCN(C(=O)N4CCN(C)CC4)CC3)coc12)c1c(Cl)ccc(F)c1Cl [Example 225] | pIC50 | > 6.30
CC(Oc1c(N)ncc2c(-c3cnn(C4CCNCC4)c3)coc12)c1cc(F)cc(-c2cnn(C)c2)c1 (stereo not drawn) [Example 452] | pIC50 | > 6.30
C[C@@H](Oc1c(N)ncc2c(C3=CCN(C(=O)c4ccc[nH]4)CC3)coc12)c1c(Cl)ccc(F)c1Cl [Example 234] | pIC50 | 5.30 to 6.30
CC(Oc1c(N)ncc2c(-c3cnn(C4CCNCC4)c3)coc12)c1ccccc1F (stereo not drawn) [Example 374] | pIC50 | 5.30 to 6.30
C[C@@H](Oc1c(N)ncc2c(-c3cnn([C@H]4CCNC4)c3)coc12)c1c(Cl)ccc(F)c1Cl [Example 161] | pIC50 | > 6.30
C[C@@H](Oc1c(N)ncc2c(-c3csc(C(N)=O)c3)coc12)c1c(Cl)ccc(F)c1Cl [Example 318] | pIC50 | 5.30 to 6.30

* * *

- System: MET (human) (Homo sapiens)
- Assay Summary: MET (human) AlphaScreen kinase assay, Km of ATP
- Type: biochemical
- Reported Conditions: AlphaScreen, Km of ATP; read-out: Met biochemical IC50
Listing: IC50 of selected compounds

Compound | IC50
C[C@@H](Oc1c(N)ncc2c(-c3ccc(CN4CCOCC4)cc3)coc12)c1c(Cl)ccc(F)c1Cl [Example 85] | 500 to 5000 nM
COc1ccc(CC(C)Oc2c(N)ncc3c(-c4cnn(C5CCNCC5)c4)coc23)cc1 (stereo not shown) [Example 431] | 500 to 5000 nM
C[C@@H](Oc1c(N)ncc2c(-c3ccc(C=O)s3)coc12)c1c(Cl)ccc(F)c1Cl [Example 210] | 500 to 5000 nM
C[C@@H](Oc1c(N)ncc2c(-c3ccc(C(=O)NCCN4CCOCC4)cc3)coc12)c1c(Cl)ccc(F)c1Cl [Example 100] | 500 to 5000 nM
C[C@@H](Oc1c(N)ncc2c(C3=CCN(C(=O)CCCN(C)C)CC3)coc12)c1c(Cl)ccc(F)c1Cl [Example 20] | < 500 nM
C[C@@H](Oc1c(N)ncc2c(-c3ccc(C(=O)Nc4nccs4)cc3)coc12)c1c(Cl)ccc(F)c1Cl [Example 109] | 500 to 5000 nM
C[C@@H](Oc1c(N)ncc2c(C3=CCCN(C(N)=O)C3)coc12)c1c(Cl)ccc(F)c1Cl [Example 143] | < 500 nM

* * *

- System: RON (human) (Homo sapiens)
- Sequence (Q04912 25-1400): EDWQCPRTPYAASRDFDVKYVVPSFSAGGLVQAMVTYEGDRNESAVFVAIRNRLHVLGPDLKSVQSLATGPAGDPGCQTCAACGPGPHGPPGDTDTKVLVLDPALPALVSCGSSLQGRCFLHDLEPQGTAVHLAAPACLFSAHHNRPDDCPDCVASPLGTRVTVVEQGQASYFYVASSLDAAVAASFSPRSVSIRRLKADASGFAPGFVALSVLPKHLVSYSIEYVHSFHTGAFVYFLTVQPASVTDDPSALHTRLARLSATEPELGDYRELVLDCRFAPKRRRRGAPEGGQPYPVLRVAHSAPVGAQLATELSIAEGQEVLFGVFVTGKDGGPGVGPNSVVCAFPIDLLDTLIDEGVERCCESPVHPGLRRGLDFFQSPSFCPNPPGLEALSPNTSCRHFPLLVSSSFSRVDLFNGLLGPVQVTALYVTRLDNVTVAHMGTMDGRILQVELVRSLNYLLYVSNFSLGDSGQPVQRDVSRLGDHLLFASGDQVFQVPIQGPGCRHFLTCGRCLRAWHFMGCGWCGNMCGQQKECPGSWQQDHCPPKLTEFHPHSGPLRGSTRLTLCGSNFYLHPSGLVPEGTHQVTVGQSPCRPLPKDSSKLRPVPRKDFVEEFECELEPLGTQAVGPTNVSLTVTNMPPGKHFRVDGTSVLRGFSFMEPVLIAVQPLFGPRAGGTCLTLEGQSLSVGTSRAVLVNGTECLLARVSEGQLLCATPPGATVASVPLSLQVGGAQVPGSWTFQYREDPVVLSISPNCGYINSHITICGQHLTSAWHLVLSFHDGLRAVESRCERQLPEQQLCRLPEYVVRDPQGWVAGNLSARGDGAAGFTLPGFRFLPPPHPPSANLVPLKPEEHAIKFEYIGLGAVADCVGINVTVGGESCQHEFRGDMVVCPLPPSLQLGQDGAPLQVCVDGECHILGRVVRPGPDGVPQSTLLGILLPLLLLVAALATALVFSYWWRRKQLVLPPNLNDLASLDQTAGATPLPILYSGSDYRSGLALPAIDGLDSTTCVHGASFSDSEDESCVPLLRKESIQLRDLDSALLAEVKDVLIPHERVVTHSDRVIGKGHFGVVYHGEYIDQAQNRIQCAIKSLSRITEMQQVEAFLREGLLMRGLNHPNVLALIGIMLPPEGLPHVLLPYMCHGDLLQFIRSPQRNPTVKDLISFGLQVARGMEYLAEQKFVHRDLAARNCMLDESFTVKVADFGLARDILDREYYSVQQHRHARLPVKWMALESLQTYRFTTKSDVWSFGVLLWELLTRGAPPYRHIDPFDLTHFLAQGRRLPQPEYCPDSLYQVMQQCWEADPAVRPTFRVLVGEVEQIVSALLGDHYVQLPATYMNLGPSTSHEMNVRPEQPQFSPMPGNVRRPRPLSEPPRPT
- Assay Summary: RON (human) AlphaScreen kinase assay, Km of ATP
- Assay type: biochemical
- Reported Conditions: AlphaScreen, Km of ATP; read-out: RON biochemical IC50
pIC50: −log10 of the molar value.

Molecule | System | pIC50
CC(Cc1c(F)cccc1Cl)Oc1c(N)ncc2c(-c3cnn(C4CCNCC4)c3)coc12 (stereo not shown) | RON (human) (Homo sapiens) | 5.30 to 6.30
C[C@H](Oc1c(N)ncc2c(-c3cnn(C4CCNCC4)c3)coc12)c1nnc2ccc(-c3cnn(C)c3)nn12 | RON (human) (Homo sapiens) | 4.70 to 5.30
CNC(=O)c1ccc(C(C)Oc2c(N)ncc3c(-c4cnn(C5CCNCC5)c4)coc23)cc1 (stereo not shown) | RON (human) (Homo sapiens) | 4.70 to 5.30
CC(Oc1c(N)ncc2c(-c3cnn(C4CCNCC4)c3)coc12)c1ccc(C#N)cc1 (stereo not shown) | RON (human) (Homo sapiens) | 5.30 to 6.30
C[C@@H](Oc1c(N)ncc2c(C3=CC4CCC(C3)N4)coc12)c1c(Cl)ccc(F)c1Cl (stereo partly shown) | RON (human) (Homo sapiens) | 5.30 to 6.30
C[C@@H](Oc1c(N)ncc2c(C(=O)NCC3CCOCC3)coc12)c1c(Cl)ccc(F)c1Cl | RON (human) (Homo sapiens) | 5.30 to 6.30
C[C@@H]1CN(C(=O)N2CC=C(c3coc4c(O[C@H](C)c5c(Cl)ccc(F)c5Cl)c(N)ncc34)CC2)C[C@H](C)O1 | RON (human) (Homo sapiens) | 5.30 to 6.30

* * *

- System: MET (human) (Homo sapiens)
- Assay Summary: MET (human) AlphaScreen kinase assay, Km of ATP
- Type: biochemical
- Reported Conditions: AlphaScreen, Km of ATP; read-out: Met biochemical IC50
- Description: Someone skilled in the art will appreciate that a variety of assay formats may be used to determine the activity of the compounds of this invention. For example, AlphaScreen (Amplified Luminescent Proximity Homogeneous Assay) technology was used with the kinases described below. […] Desired compound is added in a final concentration of 1% DMSO with control being vehicle of DMSO alone. […] The plates, incubated for 1 h, are read on an AlphaQuest plate reader
Listing: IC50 of selected molecules

Molecule | IC50
CNCC(=O)N1CC=C(c2coc3c(O[C@H](C)c4c(Cl)ccc(F)c4Cl)c(N)ncc23)CC1 | < 500 nM
C[C@@H](Oc1c(N)ncc2c(C3=CCN(C(=O)c4ccn[nH]4)CC3)coc12)c1c(Cl)ccc(F)c1Cl | 500 to 5000 nM
C[C@@H](Oc1c(N)ncc2c(C3CCN(C(N)=O)CC3)coc12)c1c(Cl)ccc(F)c1Cl | 500 to 5000 nM
C[C@@H](Oc1c(N)ncc2c(C(=O)NCC3CCN(C)CC3)coc12)c1c(Cl)ccc(F)c1Cl | < 500 nM
CCS(=O)(=O)N1CC=C(c2coc3c(O[C@H](C)c4c(Cl)ccc(F)c4Cl)c(N)ncc23)CC1 | 500 to 5000 nM
C[C@@H](Oc1c(N)ncc2c(-c3ccc(NS(C)(=O)=O)cc3)coc12)c1c(Cl)ccc(F)c1Cl | < 500 nM
COCCCNC(=O)c1ccc(-c2coc3c(O[C@H](C)c4c(Cl)ccc(F)c4Cl)c(N)ncc23)cc1 | 500 to 5000 nM
C[C@@H](Oc1c(N)ncc2c(-c3cncnc3)coc12)c1c(Cl)ccc(F)c1Cl | 500 to 5000 nM
C[C@@H](Oc1c(N)ncc2c(-c3ccc(C(=O)N(C)C)s3)coc12)c1c(Cl)ccc(F)c1Cl | 500 to 5000 nM
C[C@@H](Oc1c(N)ncc2c(C3=CCN(C(=O)N4CCN(CC(F)(F)F)CC4)CC3)coc12)c1c(Cl)ccc(F)c1Cl | 500 to 5000 nM
C[C@@H](Oc1c(N)ncc2c(-c3cccc(N)c3)coc12)c1c(Cl)ccc(F)c1Cl | 500 to 5000 nM
C[C@@H](Oc1c(N)ncc2c(-c3cnn(C4CCNCC4)c3)coc12)c1nnc2ccc(-c3ccccc3)nn12 | < 500 nM
COc1cc(Cl)cc(Cl)c1C(C)Oc1c(N)ncc2c(-c3cnn(C4CCNCC4)c3)coc12 (stereo not drawn) | < 500 nM
C[C@@H](Oc1c(N)ncc2c(-c3cnc(N4CCOCC4)nc3)coc12)c1c(Cl)ccc(F)c1Cl | 500 to 5000 nM
CC(Cc1ccccc1C(F)(F)F)Oc1c(N)ncc2c(-c3cnn(C4CCNCC4)c3)coc12 (stereo not drawn) | < 500 nM

This collection of values is drawn from patent US8022206B2.
